Source: a melting point compilation (Tetko et al.)

result type: melting point

- compound: "Cc1ccc(S(N)(=O)=O)s1"
  melting point: "118 to 120 °C"

Query block: Indicate the recorded melting point value for this compound: O=C(O)C1CC2CCC1O2 (configuration not stated)
Result block: 44 to 46 °C

====

Item-by-item account of melting point

Some compounds with recorded melting point:
- compound: "O=C(O)C1(c2cccc(C(F)(F)F)c2)CCCC1"
  readout value: "111 to 113 °C"
- compound: "O=C(O)C1CCC2CCCCC2C1 (stereo not given)"
  readout value: "57 to 59 °C"
- compound: "O=C1NCCc2ccc(S(=O)(=O)Cl)cc21"
  readout value: "188 to 190 °C"
- compound: "CC1(C)CNc2ccccc2S1"
  readout value: "41 to 43 °C"

Query block: Look up and state reported melting point for O=[N+]([O-])c1ccc2c(S(=O)(=O)Cl)c[nH]c2c1
Result block: 173 to 175 °C
